Source listed as the NIST ThermoML archive (doi:10.1021/je4001894).

Reported activity coefficient is given for each of the following compounds.
Assay: activity coefficient (dimensionless); of the first substance listed, at infinite dilution; xn = mol fraction of the nth substance listed
Conditions: 323.15 K; 101 kPa; Liquid; Chromatography; x1 = 0

Examples with their reported activity coefficient follow.
{"Compound": "ClCCl [dichloromethane] + CCC[N+]1(C)CCCC1.O=S(=O)([N-]S(=O)(=O)C(F)(F)F)C(F)(F)F", "Reading": 0.66}
{"Compound": "CCCCCCCCCCC [undecane] + CCCC[N+]1(C)CCCC1.O=S(=O)([N-]S(=O)(=O)C(F)(F)F)C(F)(F)F", "Reading": 76.9}
{"Compound": "C1CCCCC1 [cyclohexane] + CCCC[N+]1(C)CCCC1.O=S(=O)([N-]S(=O)(=O)C(F)(F)F)C(F)(F)F", "Reading": 8.74}
{"Compound": "CCN(CC)CC [triethylamine] + CCCC[N+]1(C)CCCC1.O=S(=O)([N-]S(=O)(=O)C(F)(F)F)C(F)(F)F", "Reading": 7.07}

API: the following record is the query input.
The recorded activity coefficient for CCC(C)=O [butanone] + CCCC[N+]1(C)CCCC1.O=S(=O)([N-]S(=O)(=O)C(F)(F)F)C(F)(F)F is 0.54
